Kindly state EC50 hGLUC R [pM] (formed cAMP) for each of the entries shown.
testSystem: human glucagon receptor (human, UniProt P47871 26-477)
Sequence (P47871 26-477): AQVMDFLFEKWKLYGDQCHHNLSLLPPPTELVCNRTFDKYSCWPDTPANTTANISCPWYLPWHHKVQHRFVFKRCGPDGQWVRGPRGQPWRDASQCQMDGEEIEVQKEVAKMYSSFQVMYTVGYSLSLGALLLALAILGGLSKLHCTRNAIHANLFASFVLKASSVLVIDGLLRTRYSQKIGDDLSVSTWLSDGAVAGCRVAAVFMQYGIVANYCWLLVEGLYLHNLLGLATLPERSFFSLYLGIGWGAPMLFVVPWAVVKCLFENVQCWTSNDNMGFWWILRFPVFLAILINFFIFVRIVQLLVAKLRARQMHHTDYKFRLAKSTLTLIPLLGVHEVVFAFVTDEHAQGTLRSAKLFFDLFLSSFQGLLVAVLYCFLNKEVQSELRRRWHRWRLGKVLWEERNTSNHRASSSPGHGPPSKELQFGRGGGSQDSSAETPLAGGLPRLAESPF
assaySummary: cell-based or functional assay
*1 amine or outer side, *2 acyl side, *3 side chain or, on linkers, in order; H or OH if unused. Where no end group is shown, it is not given here. Side-chain parts run from the residue outwards. [ ]: non-standard residue; d: D form. γGlu = O=C(O)[C@H](CCC(=O)[*:2])N[*:1]; x70 = not defined here; Aib = CC(C)(N)C(=O)O
Numbers only, in pM.

Before answering, review these 2 worked examples.
[
  {
    "binder": "Y[Aib]EGTFTSDLSIQK([γGlu-x70])EEEAVRLFIEWLK[Aib]GGPSSGAPPPS-NH2 (reading uncertain) [SEQ ID NO: 12]",
    "EC50 hGLUC R [pM] (formed cAMP), pM": 95900
  },
  {
    "binder": "Y[Aib]EGTFTSDLSIQK([γGlu-x70])EEEAVRLFIEWLK[Aib]GGPSSGAPPPS-NH2 (reading uncertain) [SEQ ID NO: 9]",
    "EC50 hGLUC R [pM] (formed cAMP), pM": 164000
  }
]

Now take the following binder into account.
Exam item: Name the recorded EC50 hGLUC R [pM] (formed cAMP) of the binder listed here: Y[Aib]EGTFTSDLSIQK([γGlu-x70])EKEAVRLFIEWLKAGGPSSGAPPPS-NH2 (reading uncertain) [SEQ ID NO: 13]
Marked response: 200000

Measured values drawn from patent US20140206608A1 for this set.
